Each entry below lists one item and its recorded Potency value.
Target or test system: Glucocorticoid receptor (Homo sapiens) (UniProt P04150)
Sequence (P04150 whole entry, looked up): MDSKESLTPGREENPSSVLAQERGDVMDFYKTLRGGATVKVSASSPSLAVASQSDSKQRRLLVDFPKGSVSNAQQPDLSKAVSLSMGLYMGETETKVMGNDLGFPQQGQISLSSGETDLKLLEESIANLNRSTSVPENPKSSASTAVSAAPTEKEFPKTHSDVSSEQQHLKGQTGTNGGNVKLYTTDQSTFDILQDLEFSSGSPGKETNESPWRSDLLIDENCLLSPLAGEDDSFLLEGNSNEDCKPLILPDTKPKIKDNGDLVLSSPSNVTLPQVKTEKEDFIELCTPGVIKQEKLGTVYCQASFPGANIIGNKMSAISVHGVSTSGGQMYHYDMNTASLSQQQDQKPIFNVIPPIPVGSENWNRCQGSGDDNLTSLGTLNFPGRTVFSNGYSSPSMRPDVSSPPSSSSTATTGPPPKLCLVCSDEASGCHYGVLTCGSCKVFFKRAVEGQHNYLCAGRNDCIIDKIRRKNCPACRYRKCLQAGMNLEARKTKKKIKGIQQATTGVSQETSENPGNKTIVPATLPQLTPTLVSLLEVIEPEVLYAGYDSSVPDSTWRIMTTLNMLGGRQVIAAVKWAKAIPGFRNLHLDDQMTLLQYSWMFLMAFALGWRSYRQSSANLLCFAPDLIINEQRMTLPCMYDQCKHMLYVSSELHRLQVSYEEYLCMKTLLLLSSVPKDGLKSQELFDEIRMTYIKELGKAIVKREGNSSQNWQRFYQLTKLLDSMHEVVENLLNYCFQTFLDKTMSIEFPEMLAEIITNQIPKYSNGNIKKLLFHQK
Method notes: GR-GFP Redistribution (AID 450); note: potency is the fitted concentration of half-maximal effect
Measurement context: U2OS GR-GFP nuclear translocation, laser cytometry, 2 h
Active and inactive are the calls of the source.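 Rule for the calls: active = compounds whose dose series gives a full or clear partial fitted curve of increased nuclear translocation; inconclusive = weak partial curve or effect only at the top dose; inactive = no dose-dependent translocation response.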

Field: example entries. Status: answers known.
>>> print(df.to_string())
                         chemical_structure                result
0                  NC(N)=NCCC[C@H](N)C(=O)O    > 46 µM (inactive)
1     Cc1cc(CC(=O)O)n(C)c1C(=O)c1ccc(Cl)cc1  > 20.6 µM (inactive)
2  NS(=O)(=O)c1cc2c(cc1Cl)NC(CSCc1ccccc1)=NS2(=O)=O  > 20.6 µM (inactive)
3        Nc1ccc(S(=O)(=O)NC(=O)c2ccccc2)cc1  > 20.6 µM (inactive)

Now, please, on to the next compound.
Prompt line: Reported Potency, compound C=Cc1c(C)c2cc3[nH]c(cc4nc(cc5nc(cc1[nH]2)C(C)=C5CCC(=O)O)C(CCC(=O)O)=C4C)c(C)c3C=C : ____
Response line: > 46 µM (inactive)

---

Method notes: Primary redox qHTS assay for identification of artifact compounds. (AID 1845223);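 note: 0% = DMSO and 100% = reference compound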
Measurement context: Amplex Red/HRP redox cycling with DTT, fluorescence; series mostly up to 53.8 µM
Inconclusive results are not listed. Active and inactive are the calls of the source. Calls follow the shape of the dose curve; as a rule, active = well fitted activation curve with a large enough effect; inconclusive = small, poorly fitted or top-dose-only effect; inactive = flat fitted curve, though single readings scatter.
Property label: redox activity (% of DA3003)

In [3]: df
Out[3]:
                                   compound    result
0  CCCCc1ncc(/C=C(\Cc2cccs2)C(=O)O)n1Cc1ccc(C(=O)O)cc1  inactive
1  COc1ccc2c(c1)C(=O)N(CCc1ccc(S(=O)(=O)NC(=O)NC3CCCCC3)cc1)C(=O)C2(C)C  inactive
2  C[C@]12CC[C@@H]3c4ccc(O)cc4CC[C@H]3[C@@H]1CC[C@@H]2OC(=O)CCC1CCCC1  inactive
3  CCOC(=O)[C@H](CCc1ccccc1)N[C@@H](C)C(=O)N1C(=O)N(C)C[C@H]1C(=O)O  inactive
4  CC(C)(C(=O)O)c1ccc(C(O)CCCN2CCC(C(O)(c3ccccc3)c3ccccc3)CC2)cc1 (configuration not stated)  inactive

Prompt line: Field request: redox activity (% of DA3003) | item: Cc1cc(C(C#N)c2ccc(Cl)cc2)c(Cl)cc1NC(=O)c1cc(I)cc(I)c1O (configuration not stated)
Response line: inactive

Prompt line: What redox activity (% of DA3003) value was documented for this compound, Cc1cccc(Nc2cc(Cl)nc(SCC(=O)O)n2)c1C ?
Response line: inactive

Prompt line: Return reported redox activity (% of DA3003); argument: O=c1[nH]cnc2c1ncn2[C@@H]1O[C@H](CO)[C@@H](O)[C@H]1O
Response line: inactive

Prompt line: Field request: redox activity (% of DA3003) | item: Cn1c(=O)c2c(ncn2CC2OCCO2)n(C)c1=O
Response line: inactive

---

Tested on: CP252
Method notes: qHTS profiling for inhibitors of Plasmodium falciparum proliferation (AID 504749); note: nearly all actives have a fitted effect of over 60% in size
Measurement context: P. falciparum in erythrocytes, SYBR Green DNA, 72 h; series mostly up to 28.7 µM
Results filed as inconclusive are left out. Calls of active or inactive are those of the source. Calls follow the shape of the dose curve; as a rule, active = well fitted inhibition curve with a large enough effect; inconclusive = small, poorly fitted or top-dose-only effect; inactive = flat fitted curve, though single readings scatter.
Pick one and only one: true (1) (active), false (0) (inactive)

Worked set:
>>> print(df.to_string())
                         molecule  assigned_class
0            O=c1cc[nH]c(=O)[nH]1       false (0)
1  COc1cc(C)c(Cc2cnc(N)nc2N)cc1OC       false (0)

Prompt line: What classification did CC1(C)CO[C@@H](CC(=O)O)CN1 end up with in this test?
Response line: false (0)

Prompt line: Dear colleague, could you share the recorded outcome for Cc1cc(CC(=O)O)n(C)c1C(=O)c1ccc(Cl)cc1 when you have a moment?
Response line: false (0)

Prompt line: Recorded call for NC1CCN(c2cccc(Cl)n2)CC1 ?
Response line: false (0)

Prompt line: # fetch the recorded call for O=c1cc(CO)occ1O here
Response line: false (0)

Prompt line: Hi, sorry to bother you, what did the test record for O=C1c2c(O)cccc2Cc2cccc(O)c21 ?
Response line: false (0)

Prompt line: What call does the record list for OCCN1CCN(CCCN2c3ccccc3Sc3ccc(Cl)cc32)CC1 ?
Response line: true (1)

Prompt line: Outcome? CCOC(=O)c1ccc(O)cc1
Response line: false (0)

Prompt line: Test call for this molecule, please: N[C@@H](CSCCCO)C(=O)O
Response line: false (0)

---

Method notes: P-glycoprotein substrates identified in KB-8-5-11 adenocarcinoma cell line, qHTS therapeutic library screen (AID 1346987); note: nearly all actives have a fitted effect of over 65% in size
Measurement context: KB-8-5-11 (P-gp overexpressing) viability, CellTiter-Glo, 72 h; series mostly up to 44.5 µM
Results filed as inconclusive are left out. Calls of active or inactive are those of the source. Calls come from the whole dose curve; as a rule, active = well fitted inhibition curve with a large enough effect; inconclusive = small, poorly fitted or top-dose-only effect; inactive = flat fitted curve, though single readings scatter.
// allowed return values: active, inactive

                                   compound  assigned_class
0    O=C(O)Cc1sc(-c2ccccc2)nc1-c1ccc(Cl)cc1        inactive
1  CC(C)(C(=O)O)c1ccc(C(O)CCCN2CCC(C(O)(c3ccccc3)c3ccccc3)CC2)cc1 (stereo unspecified)        inactive
2    CCn1cc(C(=O)O)c(=O)c2cnc(N3CCNCC3)nc21        inactive
3           c1ccc(CN(CC2=NCCN2)c2ccccc2)cc1        inactive
4     CCCc1c(OCCCCc2nn[nH]n2)ccc(C(C)=O)c1O        inactive

Prompt line: Give the logged outcome of this assay for the following compound: O=C(O)CC(O)C(=O)O (stereo unspecified)
Response line: inactive

Prompt line: Recorded test outcome, item CC(C(O)c1ccc(O)cc1)N1CCC(Cc2ccccc2)CC1 (stereo unspecified)
Response line: inactive

Prompt line: Please share the test call associated with O=C(O)c1ccccc1-c1ccc(C(F)(F)F)cc1 .
Response line: inactive

Prompt line: For N[C@H](C(=O)O)c1ccc(O)cc1 , which call appears in the assay record?
Response line: inactive

Prompt line: Returns: the outcome recorded for O=c1cc[nH]c(=S)[nH]1 in this assay.
Response line: inactive

Prompt line: Could you check what this test reported for Cn1cc[nH]c1=S ?
Response line: inactive

Prompt line: Hey, what did the test say about CC1(C)[C@@H]2CC[C@@]1(C)C(=O)C2 ?
Response line: inactive

Prompt line: # lookup: test call for Nc1nc2c(ncn2CCC(CO)CO)c(=O)[nH]1
Response line: inactive

Prompt line: Short answer needed: outcome of this test for CN1CCOC(c2ccccc2)c2ccccc2C1 (stereo unspecified) ?
Response line: inactive

---

Target or test system: Calcium and integrin-binding protein 1 (Homo sapiens) (UniProt Q99828)
Sequence (Q99828 whole entry, looked up): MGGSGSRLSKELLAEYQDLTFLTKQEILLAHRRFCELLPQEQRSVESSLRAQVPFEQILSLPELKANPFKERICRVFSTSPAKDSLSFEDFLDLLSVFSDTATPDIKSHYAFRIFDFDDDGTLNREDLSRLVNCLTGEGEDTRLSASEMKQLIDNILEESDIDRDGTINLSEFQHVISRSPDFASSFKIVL
Method notes: Primary qHTS for Identification of Calcium Integrin Binding Protein 1 (CIB1) Competitor (AID 1508620);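 note: GST tagged CIB1 binding a fluorescein labelled alphaIIb integrin peptide tracer; top concentration of the series differs between compounds; % is set by controls: 0 for no effect and ±100 for the full control effect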
Measurement context: CIB1-GST / FITC-alphaIIb peptide fluorescence polarization; series mostly up to 114 µM
Results filed as inconclusive are left out. Calls of active or inactive are those of the source. Calls follow the shape of the dose curve; as a rule, active = well fitted inhibition curve with a large enough effect; inconclusive = small, poorly fitted or top-dose-only effect; inactive = flat fitted curve, though single readings scatter.
Property label: activity change, negative = inhibition

>>> df
                                   compound                          result
0  COc1ccc(Cl)cc1C(=O)NCCc1ccc(S(=O)(=O)NC(=O)NC2CCCCC2)cc1                        inactive
1       O=c1[nH]c(=O)c2[nH]c(=O)[nH]c2[nH]1                        inactive
2  CN1CCOC(c2ccccc2)c2ccccc2C1 (stereo not given)                        inactive
3  C[C@@H]1CC[C@@]2(OC1)O[C@H]1C[C@H]3[C@@H]4CC[C@H]5C[C@@H](O)CC[C@]5(C)[C@H]4CC(=O)[C@]3(C)[C@H]1[C@@H]2C  -1.41% [at 12.4 µM] (inactive)

Prompt line: Fill in: activity change, negative = inhibition of O=C1NS(=O)(=O)c2ccccc21 is ___
Response line: inactive

---

Tested on: CP286
Method notes: qHTS profiling for inhibitors of Plasmodium falciparum proliferation (AID 504749); note: nearly all actives have a fitted effect of over 60% in size; note: potency is the fitted concentration of half-maximal effect
Measurement context: P. falciparum in erythrocytes, SYBR Green DNA, 72 h; series mostly up to 28.7 µM
Inconclusive results are not listed. Active and inactive are the calls of the source. The call rests on the fitted dose curve; in most records, active means well fitted inhibition curve with a large enough effect; inconclusive means small, poorly fitted or top-dose-only effect; inactive means flat fitted curve, though single readings scatter.
Property label: Potency

Before answering, review these 10 worked examples.
In [3]: df
Out[3]:
                                   molecule  property_label             result
0  CCCCCCCCCCCCCCCCCCOCC(O)CO (stereo not drawn)         Potency           inactive
1  Cc1cc(N)c2ccccc2[n+]1CCCCCCCCCC[n+]1c(C)cc(N)c2ccccc21         Potency  0.447 µM (active)
2           COc1cc(C(=O)N2CCOCC2)cc(OC)c1OC         Potency           inactive
3                        CCC(=O)c1ccc(O)cc1         Potency           inactive
4        CCN(CC)CCSC(=O)C(c1ccccc1)c1ccccc1         Potency           inactive
5     CCCc1c(OCCCCc2nn[nH]n2)ccc(C(C)=O)c1O         Potency           inactive
6          CCN(CC)CCNC(=O)c1cc(Cl)c(N)cc1OC         Potency           inactive
7  OCC(O)CN1CCN(c2ccccc2)CC1 (stereo not drawn)         Potency           inactive
8  CNC(=O)Oc1ccc2c(c1)[C@]1(C)CCN(C)[C@@H]1N2C         Potency   7.08 µM (active)
9    NC(CSCC(=O)O)C(=O)O (stereo not drawn)         Potency           inactive

Prompt line: I am curious: what Potency value has been reported for CCCCC(CC)COC(=O)c1ccccc1O (stereo not drawn) ?
Response line: inactive

Prompt line: What does the record list as Potency for C[C@](N)(Cc1ccc(O)cc1)C(=O)O ?
Response line: inactive

Prompt line: For O=C(O)c1ccccc1O , what is its reported Potency?
Response line: inactive
